Data credit: patent US20170022281A1

Biological target: T1, human PRLR (Biacore antigen) (human, UniProt P16471 25-234, limits assumed)
T1 construct: The construct injected over captured antibody is not described (a soluble form is likely); also called huPRLR
T1 sequence: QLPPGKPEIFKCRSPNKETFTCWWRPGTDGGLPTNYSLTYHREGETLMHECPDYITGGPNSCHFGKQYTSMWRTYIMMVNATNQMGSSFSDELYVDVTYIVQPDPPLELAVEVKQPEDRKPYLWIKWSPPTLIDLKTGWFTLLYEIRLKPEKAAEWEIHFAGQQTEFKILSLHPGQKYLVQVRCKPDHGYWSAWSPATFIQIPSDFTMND
Assay: SPR Biacore
observed.property: koff (s⁻¹)

>  <binder>
Ab36 (antibody, human IgG1, kappa, V domains shown, humanized from Ab7; G1; also called Ab4 HC.1 and Ab4 LC.1a) VH: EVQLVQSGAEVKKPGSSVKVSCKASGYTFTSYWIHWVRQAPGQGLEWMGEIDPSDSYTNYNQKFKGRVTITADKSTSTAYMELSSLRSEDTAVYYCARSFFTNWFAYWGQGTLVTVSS VL: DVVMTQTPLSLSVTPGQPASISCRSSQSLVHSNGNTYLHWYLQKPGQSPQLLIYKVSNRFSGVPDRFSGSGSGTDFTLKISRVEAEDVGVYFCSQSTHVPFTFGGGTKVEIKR

>  <units.label>
s⁻¹

>  <test.result>
0.00128

$$$$
>  <binder>
Ab39 (antibody, human IgG1, kappa, V domains shown, humanized from Ab7; G1; also called Ab4 HC.1a and Ab4 LC.1a) VH: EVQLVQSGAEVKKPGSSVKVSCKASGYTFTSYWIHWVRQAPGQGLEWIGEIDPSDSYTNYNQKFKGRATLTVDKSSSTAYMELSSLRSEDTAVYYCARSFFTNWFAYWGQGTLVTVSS VL: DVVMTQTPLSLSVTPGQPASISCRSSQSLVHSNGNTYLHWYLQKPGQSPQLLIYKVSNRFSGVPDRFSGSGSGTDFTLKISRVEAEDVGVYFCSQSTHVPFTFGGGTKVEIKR

>  <units.label>
s⁻¹

>  <test.result>
0.000715

$$$$
>  <binder>
Ab55 (antibody, human IgG1, kappa, V domains shown, humanized from Ab7 (back mutations on Ab39); G1; also called Ab4 HC.1a.2 and Ab4 LC.1a) VH: EVQLVQSGAEVKKPGSSVKVSCKASGYTFTSYWIHWVRQAPGQGLEWIGEIDPSDSYTNYNQKFKGRATLTVDRSSSTAYMELSSLRSEDTAVYYCGRSFFTNWFAYWGQGTLVTVSS VL: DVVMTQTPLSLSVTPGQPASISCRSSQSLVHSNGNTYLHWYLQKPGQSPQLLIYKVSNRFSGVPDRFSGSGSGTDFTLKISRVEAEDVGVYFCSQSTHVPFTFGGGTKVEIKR

>  <units.label>
s⁻¹

>  <test.result>
0.00012

$$$$
>  <binder>
Ab8 (antibody, V domains shown, murine monoclonal, isotype G2b; also called murine Ab8) VH: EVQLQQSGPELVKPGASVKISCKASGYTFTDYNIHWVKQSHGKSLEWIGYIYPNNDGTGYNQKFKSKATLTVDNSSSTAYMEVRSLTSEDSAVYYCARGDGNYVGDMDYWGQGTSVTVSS VL: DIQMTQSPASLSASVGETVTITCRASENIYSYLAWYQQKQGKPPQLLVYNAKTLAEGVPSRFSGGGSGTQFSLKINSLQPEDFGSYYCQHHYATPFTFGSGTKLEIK

>  <units.label>
s⁻¹

>  <test.result>
8.19e-05

$$$$
>  <binder>
Ab20 (antibody, human IgG1, kappa, V domains shown, humanized from Ab6; G1; also called Ab1 HC.1a and Ab1 LC.2) VH: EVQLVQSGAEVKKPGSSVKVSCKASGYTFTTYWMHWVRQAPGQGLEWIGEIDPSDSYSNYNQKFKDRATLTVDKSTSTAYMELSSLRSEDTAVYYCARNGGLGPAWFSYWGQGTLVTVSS VL: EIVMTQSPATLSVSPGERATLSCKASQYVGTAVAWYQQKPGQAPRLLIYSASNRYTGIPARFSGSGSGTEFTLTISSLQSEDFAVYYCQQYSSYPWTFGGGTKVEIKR

>  <units.label>
s⁻¹

>  <test.result>
0.00208

$$$$
>  <binder>
Ab16 (antibody, human IgG1, kappa, V domains shown, humanized from Ab6; G1; also called Ab1 HC.1 and Ab1 LC.2) VH: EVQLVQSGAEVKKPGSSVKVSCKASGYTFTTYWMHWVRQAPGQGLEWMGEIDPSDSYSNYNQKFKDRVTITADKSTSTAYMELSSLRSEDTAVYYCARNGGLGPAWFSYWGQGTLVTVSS VL: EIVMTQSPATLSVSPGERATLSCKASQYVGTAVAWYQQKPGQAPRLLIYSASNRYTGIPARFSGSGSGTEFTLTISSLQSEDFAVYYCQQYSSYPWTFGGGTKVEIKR

>  <units.label>
s⁻¹

>  <test.result>
0.00562

$$$$
>  <binder>
Ab21 (antibody, human IgG1, kappa, V domains shown, humanized from Ab6; G1; also called Ab1 HC.1a and Ab1 LC.2a) VH: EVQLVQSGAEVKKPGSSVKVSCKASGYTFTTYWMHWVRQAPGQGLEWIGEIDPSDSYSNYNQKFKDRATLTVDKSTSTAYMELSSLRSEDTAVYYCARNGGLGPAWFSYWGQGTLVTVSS VL: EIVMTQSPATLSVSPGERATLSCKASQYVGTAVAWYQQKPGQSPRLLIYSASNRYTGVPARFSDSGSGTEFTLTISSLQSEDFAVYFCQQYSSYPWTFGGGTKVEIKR

>  <units.label>
s⁻¹

>  <test.result>
0.000586

$$$$
>  <binder>
Ab49 (antibody, human IgG1, kappa, V domains shown, humanized from Ab8; G1; also called Ab3 HC.1a and Ab3 LC.1b) VH: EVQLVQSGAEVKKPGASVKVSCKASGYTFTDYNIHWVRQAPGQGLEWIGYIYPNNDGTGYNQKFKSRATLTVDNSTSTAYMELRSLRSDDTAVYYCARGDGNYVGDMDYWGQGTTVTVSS VL: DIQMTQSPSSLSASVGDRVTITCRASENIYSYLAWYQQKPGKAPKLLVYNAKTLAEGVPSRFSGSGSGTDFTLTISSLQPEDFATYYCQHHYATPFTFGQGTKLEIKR

>  <units.label>
s⁻¹

>  <test.result>
0.00012

$$$$
>  <binder>
Ab13 (antibody, V domains shown, murine monoclonal, isotype G2a; also called murine Ab13) VH: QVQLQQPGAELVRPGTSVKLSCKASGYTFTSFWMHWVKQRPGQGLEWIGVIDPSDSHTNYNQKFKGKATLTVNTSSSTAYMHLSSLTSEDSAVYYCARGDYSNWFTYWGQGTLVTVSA VL: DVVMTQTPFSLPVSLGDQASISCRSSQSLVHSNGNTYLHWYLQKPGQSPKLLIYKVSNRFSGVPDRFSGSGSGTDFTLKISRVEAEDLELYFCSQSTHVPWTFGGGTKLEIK

>  <units.label>
s⁻¹

>  <test.result>
0.000431

$$$$
>  <binder>
Ab7 (antibody, V domains shown, murine monoclonal, isotype G1; also called murine Ab7) VH: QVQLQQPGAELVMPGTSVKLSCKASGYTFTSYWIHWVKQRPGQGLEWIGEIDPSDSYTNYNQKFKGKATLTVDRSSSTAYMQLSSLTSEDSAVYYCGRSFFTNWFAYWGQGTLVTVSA VL: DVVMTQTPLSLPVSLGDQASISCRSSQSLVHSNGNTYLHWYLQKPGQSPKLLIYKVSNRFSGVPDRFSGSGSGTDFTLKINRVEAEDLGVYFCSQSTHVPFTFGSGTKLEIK

>  <units.label>
s⁻¹

>  <test.result>
4.27e-05

$$$$
